# TARGET: T1, recombinant human 4R0N tau (human, UniProt P10636 2-758)
# T1 construct: also called P10636-6
# T1 sequence (P10636 other isoform, or with tags, fused parts or gaps limits assumed): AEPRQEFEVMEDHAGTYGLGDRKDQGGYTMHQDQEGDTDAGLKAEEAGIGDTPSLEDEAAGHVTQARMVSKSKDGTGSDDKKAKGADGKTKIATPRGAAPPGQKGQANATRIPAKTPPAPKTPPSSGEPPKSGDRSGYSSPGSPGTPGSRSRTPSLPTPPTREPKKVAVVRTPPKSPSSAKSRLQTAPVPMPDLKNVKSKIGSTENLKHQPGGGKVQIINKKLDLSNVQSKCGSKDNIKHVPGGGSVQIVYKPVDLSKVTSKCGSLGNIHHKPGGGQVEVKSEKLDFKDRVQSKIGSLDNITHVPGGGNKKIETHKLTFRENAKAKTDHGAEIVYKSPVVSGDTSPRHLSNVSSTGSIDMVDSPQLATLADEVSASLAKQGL
# MEASUREMENT_NOTES: SPR, Biacore T200, antibody captured on anti-human Fc, tau as analyte, 1:1 fit
# Experimental: Target binding analysis was performed using a Biacore T200 to compare the binding affinity of humanized 3D6 variants to recombinant human 4R0N tau. Anti-Human Fc antibody was immobilized on sensor chip CM3 via amine coupling, and humanized 3D6 variants were captured to equivalent levels. […] Data was blank subtracted to both an irrelevant sensor not containing antibody and 0 nM analyte concentration. Analysis was performed using a global 1:1 fit with Biacore Evaluation software.
For each record, write down the corresponding Kd.
Answers are plain numbers, in nM.

Sample records with Kd:
hu3D6VHv1bA11/L2-DIM20 (antibody, V domains shown, Humanized antibody with human Fc) VH: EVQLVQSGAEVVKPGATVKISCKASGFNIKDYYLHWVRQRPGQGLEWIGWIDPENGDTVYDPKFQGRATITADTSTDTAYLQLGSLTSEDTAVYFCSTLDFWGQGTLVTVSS VL: DVVMTQSPLSLPVTLGQPASISCKSSQSLLDSDGKTYLNWLQQRPGQSPRRLIYEVSKRDSGVPDRFSGSGSGTDFTLKISRVEAEDVGVYYCWQGTHFPYTFGGGTKLEIK: 36
hu3D6VHv1bA11/L2-DIM4 (antibody, V domains shown) VH: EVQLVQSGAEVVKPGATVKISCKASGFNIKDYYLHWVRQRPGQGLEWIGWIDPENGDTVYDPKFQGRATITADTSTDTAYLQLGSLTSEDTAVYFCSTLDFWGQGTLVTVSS VL: DVVMTQSPLSLPVTLGQPASISCKSSQSLLDSDGKTYLNWLQQRPGQSPRRLIYLVGKRDSGVPDRFSGSGSGTDFTLKISRVEAEDVGVYYCWQGTHFPYTFGGGTKLEIK: 0.0948

Let's switch to this binder now.
Entry hu3D6VHv1bA11/L2-DIM13 (antibody, V domains shown, Humanized antibody with human Fc) VH: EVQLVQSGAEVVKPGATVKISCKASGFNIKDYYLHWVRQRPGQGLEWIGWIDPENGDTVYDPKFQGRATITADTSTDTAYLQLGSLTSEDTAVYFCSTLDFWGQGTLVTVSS VL: DVVMTQSPLSLPVTLGQPASISCKSSQSLLDSDGKTYLNWLQQRPGQSPRRLIYGVSKLDSGVPDRFSGSGSGTDFTLKISRVEAEDVGVYYCWQGTHFPYTFGGGTKLEIK ; Kd = 0.904
